Hello, the source for this data is PubChem BioAssay AID1159580, in case you need it.

# ASSAY OVERVIEW: chemical genetic growth profiling, strain panel (AID 1159580);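 also: tested at 20 µM; growth read once vehicle control cultures reached saturation at 30 °C; 1 = growth at the plate median or of vehicle wells; lower values mean less growth of the strain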
# DETAILS: S. cerevisiae deletion strains, growth OD, locus YLR039C, strain RIC1
Hit rate of the full screen: of about 5,500 compounds, about 2,000 (36%) were called active. About 18% were inconclusive and are not listed. Rule as the data show it: active = normalized growth mostly below about 0.91 (no sharp cut-off); inconclusive = no clear call, values can overlap the other calls; inactive = mostly above about 0.92. This is one part of the list.
Response enum: 1.0 for active, 0.0 for inactive

Request: Tell me the assay call for CCCc1nc(-c2ccccn2)[nH]c(=O)c1CC1CC1 please.
Result: 1.0

Request: Tell me the assay call for CC(C)=CCCC1(C)C=Cc2c(O)c3c(c(CC=C(C)C)c2O1)OC12C(=CC4CC1C(C)(C)OC2(C/C=C(/C)C(=O)O)C4O)C3=O (centres undefined) please.
Result: 0.0

Request: Tell me the assay call for CC(C)(Oc1ccc(CCNC(=O)c2ccc(Cl)cc2)cc1)C(=O)O please.
Result: 0.0

Request: Tell me the assay call for CC(C)=CCCC1(C)C=Cc2c(O)c3c(c(CC=C(C)C)c2O1)OC12C(CC4CC1C(C)(C)OC2(C/C=C(/C)C(=O)O)C4O)C3=O (centres undefined) please.
Result: 0.0

Request: Tell me the assay call for Cc1noc(C)c1C(=O)N1CCN(c2ncc(C(F)(F)F)cc2Cl)CC1 please.
Result: 0.0

Request: Tell me the assay call for Cc1ccnc(NS(=O)(=O)c2ccc(N)cc2)n1 please.
Result: 0.0

Request: Tell me the assay call for O=C(Nc1cc2cc([N+](=O)[O-])ccc2oc1=O)c1c(F)cccc1F please.
Result: 0.0

Request: Tell me the assay call for O=C(COc1ccc2c(c1)OCO2)N1CCN(c2ncc(C(F)(F)F)cc2Cl)CC1 please.
Result: 0.0

Request: Tell me the assay call for O=C(COc1ccc(Cl)cc1)N1CCN(Cc2ccc3c(c2)OCO3)CC1 please.
Result: 0.0

* * *

# ASSAY OVERVIEW: chemical genetic growth profiling, strain panel (AID 1159580);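 also: tested at 20 µM; growth read once vehicle control cultures reached saturation at 30 °C; 1 = growth at the plate median or of vehicle wells; lower values mean less growth of the strain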
# DETAILS: S. cerevisiae deletion strains, growth OD, locus YDR137W, strain rgp1
In all, about 5,500 compounds went through this assay and about 2,000 (36%) were called active. Not shown: some 18% with an inconclusive outcome. Rule as the data show it: active = normalized growth mostly below about 0.91 (no sharp cut-off); inconclusive = no clear call, values can overlap the other calls; inactive = mostly above about 0.92. The list shows a part of the results.
Response enum: class 1 for active, class 0 for inactive

Request: Tell me the assay call for OC(CCN1CCCC1)(c1ccccc1)C1CCCCC1 (stereo not given) please.
Result: class 0

Request: Tell me the assay call for Cc1cc(O)cc(C)c1Cl please.
Result: class 1

Request: Tell me the assay call for CC(=O)O[C@H]1CC[C@@]2(C)C(CC[C@]3(C)C2CC=C2C4CC(C)(C)CC[C@]4(C)CC[C@]23C)C1(C)C (stereo not given in full) please.
Result: class 0

Request: Tell me the assay call for N=C(N)c1ccc(OCCCCCOc2ccc(C(=N)N)cc2)cc1 please.
Result: class 0

Request: Tell me the assay call for OC(CCN1CCCCC1)(c1ccccc1)C1CC2C=CC1C2 (stereo not given) please.
Result: class 0

Request: Tell me the assay call for CC(CC(=O)C(O)C(C)(C)O)C1C(=O)CC2(C)C3=CCC4C(C)(C)C(OC5OCC(O)C(O)C5O)CCC45CC35C(O)CC12C (stereo not given) please.
Result: class 0

Request: Tell me the assay call for CC(=O)O[C@@H]1CC[C@@]2(C)C(CC[C@]3(C)C2CC=C2C4CC(C)(C)CC[C@]4(C(=O)O)CC[C@]23C)C1(C)C (stereo not given in full) please.
Result: class 0

Request: Tell me the assay call for Cc1ccnc(NS(=O)(=O)c2ccc(N)cc2)n1 please.
Result: class 0

Request: Tell me the assay call for Cc1cc(O)ccc1Cl please.
Result: class 1

Request: Tell me the assay call for COC1=C[C@@H]2[C@@H]3Cc4ccc(OC)c(O)c4[C@]2(CCN3C)CC1=O please.
Result: class 0

* * *

# ASSAY OVERVIEW: chemical genetic growth profiling, strain panel (AID 1159580);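 also: tested at 20 µM; growth read once vehicle control cultures reached saturation at 30 °C; 1 = growth at the plate median or of vehicle wells; lower values mean less growth of the strain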
# DETAILS: S. cerevisiae deletion strains, growth OD, locus YEL061C, strain CIN8 (second series), hits give low values
Among all 5,500 compounds or so, about 2,000 (36%) were called active. About 18% were inconclusive and are not listed. This is one part of the list.
Can you tell me normalized growth for the items I'm about to list?
The response must contain the number and no unit.

Request: Need normalized growth of NC(N)=N/N=C/c1c(Cl)cccc1Cl , thanks.
Result: 0.972

Request: Need normalized growth of CC(=O)NCc1c(I)c(NC(C)=O)c(I)c(C(=O)O)c1I , thanks.
Result: 1

Request: Need normalized growth of CCCOc1ccccc1-c1nc2n[nH]nc2c(=O)[nH]1 , thanks.
Result: 1

Request: Need normalized growth of CC(CC(=O)C1OC1(C)C)C1C(=O)CC2(C)C3=CCC4C(C)(C)C(OC5OCC(O)C(O)C5O)CCC45CC35C(O)CC12C (configuration not stated) , thanks.
Result: 1.02

Request: Need normalized growth of COc1cccc2c1C(=O)c1c(O)c3c(c(O)c1C2=O)C[C@@](O)(C(=O)CO)C[C@@H]3OC1C[C@H](N)[C@H](O)[C@H](C)O1 (some centres not stated) , thanks.
Result: 0.607

Request: Need normalized growth of FC(F)(F)c1ccccc1-n1ccnc1 , thanks.
Result: 0.995

Request: Need normalized growth of COC(=O)Nc1nc2ccc(Sc3ccccc3)cc2[nH]1 , thanks.
Result: 0.999

Request: Need normalized growth of COC(=O)Nc1nc2ccc(C(=O)c3ccccc3)cc2[nH]1 , thanks.
Result: 0.976

Request: Need normalized growth of NNC(=O)c1ccncc1 , thanks.
Result: 1.01

Request: Need normalized growth of COc1cc(C(=O)NCCCCCC(=O)O)cc(OC)c1OC , thanks.
Result: 0.974

Request: Need normalized growth of Nc1ccc(S(=O)(=O)c2ccc(N)cc2)cc1 , thanks.
Result: 1

Request: Need normalized growth of O=C(Nc1ccc(C(=O)O)c(O)c1)c1ccccc1 , thanks.
Result: 0.976

Request: Need normalized growth of Cc1ccnc(NS(=O)(=O)c2ccc(N)cc2)n1 , thanks.
Result: 1

Request: Need normalized growth of CC(C)(Oc1ccc(CCNC(=O)c2ccc(Cl)cc2)cc1)C(=O)O , thanks.
Result: 0.997

Request: Need normalized growth of Clc1ccccc1C(c1ccccc1)(c1ccccc1)n1ccnc1 , thanks.
Result: 0.0638

Request: Need normalized growth of Nc1ccccc1C(=O)CC(N)C(=O)O (configuration not stated) , thanks.
Result: 0.992

Request: Need normalized growth of CC1(C)CC[C@]2(C)CC[C@]3(C)C(=CCC4[C@@]5(C)CC[C@H](O)C(C)(C)C5CC[C@]43C)C2C1 (some centres not stated) , thanks.
Result: 0.987

Request: Need normalized growth of C[C@H]1[C@H](C)CC[C@]2(CO)CC[C@]3(C)C(=CCC4[C@@]5(C)CC[C@H](O)C(C)(C)C5CC[C@]43C)[C@H]12 (some centres not stated) , thanks.
Result: 0.972

Request: Need normalized growth of CNCc1ccccc1 , thanks.
Result: 1.03

Request: Need normalized growth of C[C@@H]1CC[C@]2(C(=O)O)CC[C@]3(C)C(=CCC4[C@@]5(C)CC[C@H](O)C(C)(C)C5CC[C@]43C)C2[C@H]1C (some centres not stated) , thanks.
Result: 0.995

Request: Need normalized growth of CC1(C)CC[C@@]2(C(=O)O)C(C1)C1=CCC3[C@@]4(C)CC[C@H](O)C(C)(C)C4CC[C@@]3(C)[C@]1(C)C[C@@H]2O (some centres not stated) , thanks.
Result: 1.02

Request: Need normalized growth of NC(Cc1c[nH]c2ccccc12)C(=O)O (configuration not stated) , thanks.
Result: 1.02

* * *

# ASSAY OVERVIEW: chemical genetic growth profiling, strain panel (AID 1159580);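 also: tested at 20 µM; growth read once vehicle control cultures reached saturation at 30 °C; 1 = growth at the plate median or of vehicle wells; lower values mean less growth of the strain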
# DETAILS: S. cerevisiae deletion strains, growth OD, locus YPL209C, strain IPL1, hits give low values
Among all 5,500 compounds or so, about 2,000 (36%) were called active. About 18% were inconclusive and are not listed. The list shows a part of the results.
ATTRIBUTE MEASURED: normalized growth
The response must contain the number and no unit.

Request: Need normalized growth of O=C(NCCc1ccncc1)c1ccc(Cl)c(Cl)c1 , thanks.
Result: 0.987

Request: Need normalized growth of Nc1ccccc1C(=O)N/N=C\c1cc(Br)ccc1O , thanks.
Result: 0.985

Request: Need normalized growth of O=C(Nc1ccccc1Sc1ccc([N+](=O)[O-])cc1[N+](=O)[O-])C(Cl)(Cl)Cl , thanks.
Result: 0.971

Request: Need normalized growth of O=C(N/N=C\c1cc(Br)ccc1O)c1ccccc1Oc1ccccc1 , thanks.
Result: 0.974

Request: Need normalized growth of OC1CCN(c2cc(C(F)(F)F)nc3cc(Cl)cc(Cl)c23)CC1 , thanks.
Result: 0.971

Request: Need normalized growth of S=C(Nc1ccc(Cl)cc1)SCc1c(Cl)cccc1Cl , thanks.
Result: 0.989

Request: Need normalized growth of O=C(CSCc1csc2ccccc12)Nc1ccc(F)c(Cl)c1 , thanks.
Result: 0.973
